# cytotoxicity at 70.5 h per entry
EXPERIMENTAL_PROTOCOL: Human HepG2 cell viability assay in 384 well format
Format: toxicity, cell-based
Parameters: dose 125 nL, time 70.5 hour; concentration not given beside the values
PARTICULARS: HepG2 cells, read-out: Inhibition
PROPERTY_NAME: cytotoxicity at 70.5 h (%)

>>> reported("COc1ccc(C(O)CNc2c(C#N)c(=O)n(C)c(=O)n2C)cc1 (stereo not drawn)")
3.78
>>> reported("CC(NC(=O)CN1CCN(c2ccncc2Cl)CC1)c1ccco1 (stereo not drawn)")
-7.35
>>> reported("Cc1cccc(NC2CCN(C(=O)Nc3ccccn3)CC2)n1")
2.1
>>> reported("O=S1(=O)C[C@@H]2[C@H](C1)N(Cc1ncc[nH]1)CCN2CC1CC1")
-5.56
>>> reported("CSCc1ccc(C(=O)NCCCNc2ccc(C(F)(F)F)cn2)cc1")
-13.3
>>> reported("O=C(c1ccoc1)N1C[C@H]2CC[C@@]3(N=C(c4ccccc4)NC3=O)[C@H]2C1")
0.375
>>> reported("CCC(C)N(C)CCNC(=O)NCc1cccc(-n2cncn2)c1 (stereo not drawn)")
-2.22
>>> reported("c1cnn(-c2ccc(CN3CCOC(Cn4cncn4)C3)cc2)c1 (stereo not drawn)")
18.2
>>> reported("CC(C)c1cc(N2CCCC3(CCN(C)C3)C2)ncn1 (stereo not drawn)")
-5.86
>>> reported("Cc1cc(C(=O)N[C@H]2Cc3ccccc3[C@@H]2N)c(=O)[nH]c1C")
1.3
>>> reported("Cn1ccnc1CN1CCN(CC(O)c2cc(F)ccc2F)CC1 (stereo not drawn)")
-10.1
>>> reported("Cc1nsc(NC(=O)NC2(CN3CCOCC3)CCCCC2)n1")
1.42
>>> reported("Cc1nn(C)c2cn(CC(=O)NC3CCSCC3)nc12")
-0.476
>>> reported("CCNC(=O)[C@@H]1C[C@@H](N)CN1Cc1ccc(Sc2ccc(C)cc2)o1")
-4.77
>>> reported("CCc1nncn1CCNC(=O)N1CCCC(Cc2nccn2C)C1 (stereo not drawn)")
32.8
>>> reported("CCOc1cccc2c1OCC(=O)N(c1ccc3c(c1)OCCO3)C2")
-6.5
>>> reported("O=C(c1cccnc1)N1Cc2nccn2CC(COc2cccnc2)C1 (stereo not drawn)")
-15.2
>>> reported("CN(C)C(=O)CCS(=O)(=O)Cc1cc(Cl)c2c(c1)OCCO2")
-6.03
>>> reported("O=c1n(CC2CCCO2)nc(CC2CCNCC2)n1-c1ccccc1 (stereo not drawn)")
-11
>>> reported("O=C(NC1CCC1)[C@H]1C[C@@H]2CN(S(=O)(=O)c3ccccc3)C[C@H]1O2")
-1.64
>>> reported("Cc1cccnc1NCCNC(=O)c1cnc(-c2ccccn2)nc1O")
46.5
>>> reported("CN1C[C@@H](n2cnc(-c3ccccc3)c2-c2nccn2C)C[C@H]1C(=O)O")
-11.9
>>> reported("COCCCC1CCCN(C(=O)CCc2csc(N)n2)C1 (stereo not drawn)")
-11.8

----------
EXPERIMENTAL_PROTOCOL: Human HepG2 cell viability assay in 384 well format
Format: toxicity, cell-based
Parameters: dose 125 nL, time 70.5 hour; concentration not given beside the values
PARTICULARS: HepG2 cells, read-out: Inhibition
# cytotoxicity at 70.5 h per entry
PROPERTY_NAME: cytotoxicity at 70.5 h (%)

>>> reported("O=C(c1ccsc1)N1C[C@@H]2CCN(c3cccnc3)C[C@@H]2C1")
-6.89
>>> reported("Cc1noc(C2CCCN(C(=O)c3scnc3Cl)C2)n1 (stereo unspecified)")
13
>>> reported("CO[C@H]1CC[C@H]2[C@H]1OCCN2C(=O)CCOc1ccccc1")
-2.84
>>> reported("CCOc1cccc(CCNC(=O)NC2CCc3[nH]ncc3C2)n1 (stereo unspecified)")
24.3
>>> reported("CC(C)c1nc(C(=O)N2CCOCC2CC(=O)c2ccco2)cs1 (stereo unspecified)")
-2.9
>>> reported("OCCOc1ccc(NCc2cccc3cn[nH]c23)cn1")
0.12

----------
# cytotoxicity at 70.5 h per entry
EXPERIMENTAL_PROTOCOL: Human HepG2 cell viability assay in 384 well format
Assay type: toxicity, cell-based
Parameters: dose 125 nL, time 70.5 hour; concentration not given beside the values
PARTICULARS: HepG2 cells, read-out: Inhibition
PROPERTY_NAME: cytotoxicity at 70.5 h (%)

>>> reported("CC(C)C(=O)N1CCC(NC2CCSCC2)C1 (configuration not stated)")
-4.83
>>> reported("Cc1ccccc1C(=O)N1CCCn2nnc(Cn3cccn3)c2C1")
-9.23
>>> reported("CC1c2ncc(COc3cccnc3)n2CCN1C(=O)Cc1ccco1 (configuration not stated)")
-13.8
>>> reported("CCN(CC)C[C@H]1CN2CC[C@H]1C[C@@H]2CNC(=O)Nc1ccsc1")
-8.02
>>> reported("CC1CCc2nn(CCNC(=O)c3cccs3)c(=O)cc2C1 (configuration not stated)")
25.2
>>> reported("CSCC(=O)N(C)Cc1noc(-c2ccccc2)n1")
-9.48
>>> reported("CC(=O)N(C)Cc1nn(C)c2c1CN(Cc1ccsc1)C2")
-6.65
>>> reported("O=C(NCCNc1ncccn1)c1scnc1Cl")
9.91
>>> reported("CN(Cc1nc(N)c2ccccc2n1)C1CCCN(c2cccnn2)C1 (configuration not stated)")
-5.77
>>> reported("c1ncc(-c2cn(CCSc3cnn[nH]3)nn2)cn1")
-6.48
>>> reported("Cc1nc(CNC(=O)Nc2ccc(N(C)C)nc2)sc1C")
-2.95
>>> reported("Cc1cncc(C(=O)N2CCCCC2c2nc[nH]n2)c1 (configuration not stated)")
-4.36

----------
# cytotoxicity at 70.5 h per entry
EXPERIMENTAL_PROTOCOL: Human HepG2 cell viability assay in 384 well format
Format: toxicity, cell-based
Set-up: dose 125 nL, time 70.5 hour; concentration not given beside the values
PARTICULARS: HepG2 cells, read-out: Inhibition
PROPERTY_NAME: cytotoxicity at 70.5 h (%)

>>> reported("COc1ccc2c(c1)C(=O)NC1(CC2)CCN(Cc2cccnc2)C1 (stereo unspecified)")
-2.38
>>> reported("Cc1cc(C(=O)N2CCOC[C@H](Oc3cnccn3)C2)c(C(F)(F)F)o1")
2.77
>>> reported("CCn1ccnc1S(=O)(=O)Cc1c(C)cc(C)c(C(C)=O)c1C")
-6.82
>>> reported("CC(NCC1CCN(CCO)CC1)c1ccc(Cl)cc1 (stereo unspecified)")
10.5
>>> reported("O=C(COCC1CC1)NCC(c1ccccc1)N1CCc2sccc2C1 (stereo unspecified)")
-6.84
>>> reported("Cc1noc(C)c1C(=O)NCc1cc[nH]n1")
11.4
>>> reported("CN1CC[C@H]2CN(C(=O)COCc3nc4cc(F)ccc4[nH]3)C[C@H]21")
20.4
>>> reported("CCC(NC(=O)c1cccc2cc[nH]c12)C(=O)N1CCOCC1 (stereo unspecified)")
-11.2
>>> reported("CCN(CC)CCCN1CCC(NC(=O)OC(C)(C)C)CC1")
-4.36
>>> reported("CC(C)=CCCC1(C)CCC(=O)N(CCc2csc(N)n2)C1 (stereo unspecified)")
-5.28
>>> reported("Cc1cnc(CN2CCN(C(C)c3nc(C)no3)CC2)cn1 (stereo unspecified)")
17.2

----------
EXPERIMENTAL_PROTOCOL: Human HepG2 cell viability assay in 384 well format
Assay type: toxicity, cell-based
Parameters: dose 125 nL, time 70.5 hour; concentration not given beside the values
PARTICULARS: HepG2 cells, read-out: Inhibition
PROPERTY_NAME: cytotoxicity at 70.5 h (%)

>>> reported("Cc1nc(C)c(C(=O)NCCNc2ncccc2C(F)(F)F)s1")
-7.63
>>> reported("CN(C)c1nc(NCCc2ccnn2C)ncc1F")
23.5
>>> reported("COc1cccc(CN2CCCCCC2c2sccc2C)c1O (stereo unspecified)")
1.85
>>> reported("Cn1c(=O)c2cc(C(=O)NCc3ccncc3)ccc2n(C)c1=O")
2.17
>>> reported("Cc1cnc(CCNC(=O)C2CCN(S(=O)(=O)c3ccc(F)cc3)C2)s1 (stereo unspecified)")
17.8
>>> reported("O=C(c1ccc2[nH]ccc2c1)N1CCCCC1c1nc[nH]n1 (stereo unspecified)")
-5.67
>>> reported("O=C(c1cnccn1)N1CCCC(C2=Nc3ccccc3S(=O)(=O)N2)C1 (stereo unspecified)")
-6.36
>>> reported("CCn1nc(C)c(NC(=O)c2nnn(Cc3ccccc3)c2OC)c1C")
-5.09
>>> reported("CCOC(=O)C1(O)CCN(C(=O)Nc2cccc(F)c2)CC1")
4.4
>>> reported("Cc1cc(C)n(CCCN(C)Cc2cn[nH]c2-c2ccc(F)cc2)n1")
-9.49
>>> reported("N#CCc1ccc(NC(=O)CNc2ccc(Br)cc2F)cc1")
-7.86

This collection of values is drawn from ChEMBL document CHEMBL3507680.
